- SYSTEM: human recombinant dopamine D2 receptor (Homo sapiens (Human), UniProt P14416)
- Sequence (P14416 whole entry): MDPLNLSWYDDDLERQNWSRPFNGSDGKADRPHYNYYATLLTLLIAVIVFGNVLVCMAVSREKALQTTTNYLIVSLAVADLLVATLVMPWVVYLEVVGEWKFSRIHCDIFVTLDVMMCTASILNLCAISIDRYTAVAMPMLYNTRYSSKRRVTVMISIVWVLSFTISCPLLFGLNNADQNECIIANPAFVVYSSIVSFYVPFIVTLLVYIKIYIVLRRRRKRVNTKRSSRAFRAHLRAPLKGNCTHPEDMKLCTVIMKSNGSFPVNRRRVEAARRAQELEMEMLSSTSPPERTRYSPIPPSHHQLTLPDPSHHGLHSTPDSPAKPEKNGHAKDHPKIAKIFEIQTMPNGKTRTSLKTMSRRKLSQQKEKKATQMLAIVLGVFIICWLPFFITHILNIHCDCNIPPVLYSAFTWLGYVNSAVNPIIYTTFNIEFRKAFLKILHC
- ASSAY OVERVIEW: Test of binding inhibition for the human dopamine D2 receptor ([3H]-Metylspiperone SPA binding)
- CONDITION SUMMARY: [3H]-Metylspiperone 1.2 nM, Jump-In HEK cell membranes, read-out: hD2_Ki
EXPERIMENTAL ENDPOINT: Ki

The examples below pair each entry with its known result.
INSERT INTO measurements (compound, system, experimental_endpoint, value_measured) VALUES
  ('O=C(N[C@H]1CC[C@H](CCN2CCc3sc(Br)nc3C2)CC1)c1cccc2ncccc12', 'human recombinant dopamine D2 receptor (Homo sapiens (Human), UniProt P14416)', 'Ki', '> 1.9 µM'),
  ('O=C(N[C@H]1CC[C@H](CCN2CCc3nc(OCC(F)F)ncc3C2)CC1)c1cccc2ncccc12', 'human recombinant dopamine D2 receptor (Homo sapiens (Human), UniProt P14416)', 'Ki', '> 1.8 µM'),
  ('COc1cc(CC(=O)N[C@H]2CC[C@H](CCN3CCc4sc(N5CC(F)(F)C5)nc4C3)CC2)on1', 'human recombinant dopamine D2 receptor (Homo sapiens (Human), UniProt P14416)', 'Ki', '> 1.7 µM');

Give its Ki value. Item: O=C(N[C@H]1CC[C@H](CCN2CCc3sc(N4CC5CC5C4)nc3C2)CC1)c1cccc2ncccc12 (some centres unmarked)
> 1.7 µM

Requested field: Ki. Item: Cc1ncc(CC(=O)N[C@H]2CC[C@H](CCN3CCc4nc(N(C)CC(F)(F)F)sc4CC3)CC2)s1
0.51 µM

I am curious: what Ki value has been reported for Cn1cc2c(C(=O)N[C@H]3CC[C@H](CCN4CCc5nc(O[C@H]6C[C@H](F)C6)sc5CC4)CC3)cccc2n1 ?
> 1.7 µM

Record request: Ki value, item Cc1nc(CC(=O)N[C@H]2CC[C@H](CCN3CCc4nc(CCC(F)(F)F)sc4CC3)CC2)no1
> 1.8 µM

GET /values?readout=Ki&item= Cc1ncc(/C=C/C(=O)N[C@H]2CC[C@H](CCN3CCc4nc(OCC(F)(F)F)sc4CC3)CC2)cn1
> 1.7 µM
